Entry source: patent US20260015350A1

Target: KRas^G12S (Homo sapiens, UniProt P01116, G12S)
Construct: Biotinylated KRas (corresponding to amino acids 1-169, produced at Accelegan Inc.); biotin (biotinylated); purchased Accelegan Inc
Sequence (P01116 1-169 isoform P01116-2 G12S): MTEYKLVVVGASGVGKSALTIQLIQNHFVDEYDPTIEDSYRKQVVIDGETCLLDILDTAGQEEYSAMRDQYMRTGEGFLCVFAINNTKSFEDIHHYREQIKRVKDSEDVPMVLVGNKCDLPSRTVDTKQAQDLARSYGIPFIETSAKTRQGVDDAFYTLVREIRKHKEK
Experiment: KRas binding assay (TR-FRET tracer displacement), KRas G12S
Settings: TR-FRET tracer displacement, KRas G12S
Known IC50 of a selection of molecules

As a guide, the following entries are already answered.
O=C1NC(=O)C2(CCCN(c3nc(OCC45CCCN4CCC5)nc4c(F)c(-c5cc(O)cc(Cl)c5C5CC5)ncc34)C2)N1 (stereo not drawn)
< 2 nM
C[C@@H]1C[C@@H]1c1c(Cl)cc(O)cc1-c1ncc2c(N3CCCn4nc(C(=O)N(C)C)cc4C3)nc(OCC34CCCN3C/C(=C\F)C4)nc2c1F (stereo partly drawn)
< 2 nM

// next item, IC50 requested
Query C/C=C1/CN2CCCC2(COc2nc(N3C[C@@H]4C[C@H](C3)[C@H](O)C4)c3cnc(-c4cc(O)cc5ccc(F)c(CC)c45)c(F)c3n2)C1 (stereo partly drawn) yields IC50 of < 2 nM
